Target: T1, Human CD47-C33G (human, UniProt Q08722 19-135)
T1 construct: also called CD47 mutein with C33G mutation
T1 sequence (Q08722 19-135 C33G limits assumed): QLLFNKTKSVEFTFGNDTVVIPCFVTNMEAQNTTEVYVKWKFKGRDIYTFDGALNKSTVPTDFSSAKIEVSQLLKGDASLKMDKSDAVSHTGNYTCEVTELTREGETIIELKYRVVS
Test: SPR, IgG captured, CD47 in flow; exp 3;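 note: other target is a CD47 mutein carrying C33G, used to obtain true monovalent affinity, with kon and koff fitted from SPR binding curves and KD derived from both rates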
Metric: kon (M⁻¹ s⁻¹)
Please respond with the number in M⁻¹ s⁻¹ and leave the unit unwritten.

Tell me the measured kon of chimeric antibody 108C10A6 (antibody, V domains shown, Chimeric antibody with mouse variable domains; captured through human Fc; also called VH / VL) VH: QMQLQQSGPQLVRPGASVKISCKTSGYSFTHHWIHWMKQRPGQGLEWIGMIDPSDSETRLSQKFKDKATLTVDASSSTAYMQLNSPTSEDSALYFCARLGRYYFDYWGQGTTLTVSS VL: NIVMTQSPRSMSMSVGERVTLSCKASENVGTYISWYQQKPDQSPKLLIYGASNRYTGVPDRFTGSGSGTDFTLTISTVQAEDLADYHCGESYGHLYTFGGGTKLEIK , please. 660000
